- assay_summary: Confirmation screen for delayed death inhibitors of the malarial parasite plastid, 48 hour incubation; note: nearly all actives have a fitted effect of over 65% in size; note: potency is the fitted concentration of half-maximal effect
- condition_notes: P. falciparum-infected erythrocytes, luciferase growth; series mostly up to 28.7 µM
About 1,200 (52%) of roughly 2,300 compounds were called active. Inconclusive results (about 34%) are left out. The set was probably picked from earlier hits. Some of the results follow.
# Potency per entry

{"cpd_smiles": "COc1cccc(-c2sc3ccc(OC)cc3c2-c2cc(F)cc(OC)c2)c1", "reported_result": "11.2 µM (active)"}
{"cpd_smiles": "CCOc1ccc2nc(C)cc(Nc3cccc([N+](=O)[O-])c3)c2c1", "reported_result": "2 µM (active)"}
{"cpd_smiles": "O=[N+]([O-])c1ccc(Sc2cccc3cccnc23)c([N+](=O)[O-])c1", "reported_result": "4.47 µM (active)"}

--- query ---
Look up Potency: `O=C(CSc1nc2cc([N+](=O)[O-])ccc2n1-c1ccccc1)NCc1ccc2c(c1)OCO2`
11.2 µM (active)

----------
- assay_summary: Confirmation screen for delayed death inhibitors of the malarial parasite plastid, 48 hour incubation; note: nearly all actives have a fitted effect of over 65% in size
- condition_notes: P. falciparum-infected erythrocytes, luciferase growth; series mostly up to 28.7 µM
Screen size: about 2,300 compounds; about 1,200 (52%) were called active. Roughly 34% stayed inconclusive and do not appear here. The call rests on the fitted dose curve; in most records, active means well fitted inhibition curve with a large enough effect; inconclusive means small, poorly fitted or top-dose-only effect, or effect the other way; inactive means no such curve, though single readings can be large or run the other way. The set was probably picked from earlier hits. The list shows a part of the results.
Hi! Could you answer with just one of these? 1 (yes) for active, 0 (no) for inactive

{"cpd_smiles": "Cc1ccc(-c2nc(-c3cccnc3)sc2CC(=O)Nc2ccc(C)c(Cl)c2)cc1", "group": "1 (yes)"}
{"cpd_smiles": "CCOC(=O)c1ccc2c(c1)n(CC)c(/C=C/N(C)c1ccccc1)[n+]2CC", "group": "1 (yes)"}
{"cpd_smiles": "COc1ccc(-n2c(C)cc(C(=O)COC(=O)Cc3n[nH]c(=O)c4ccccc34)c2C)cc1", "group": "1 (yes)"}
{"cpd_smiles": "Cc1nn(Cc2c(Cl)cccc2Cl)c(C)c1NC(=O)c1cc(C(C)C)on1", "group": "1 (yes)"}

Next:
Record request — test call for `O=C(Cc1n[nH]c(=O)c2ccccc12)OCc1c(Cl)cccc1Cl`
0 (no)

----------
- assay_summary: Confirmation screen for delayed death inhibitors of the malarial parasite plastid, 48 hour incubation; note: nearly all actives have a fitted effect of over 65% in size
- condition_notes: P. falciparum-infected erythrocytes, luciferase growth; series mostly up to 28.7 µM
Out of some 2,300 compounds screened, about 1,200 (52%) were called active. About 34% were inconclusive and are not listed. Calls come from the whole dose curve; as a rule, active = well fitted inhibition curve with a large enough effect; inconclusive = small, poorly fitted or top-dose-only effect, or effect the other way; inactive = no such curve, though single readings can be large or run the other way. So high a share suggests a set chosen from earlier hits. The list shows a part of the results.
Select the correct class. Options are active, inactive and nothing else.

{"molecule": "Cc1ccnc(NCc2cccc3ccccc23)c1", "group": "active"}
{"molecule": "C=CCNC(=O)CSc1nc2sc3c(c2c(=O)n1CCCOC)CCC3", "group": "active"}
{"molecule": "O=C(O)CCc1ccc(-c2ccccc2)n1-c1ccc(C(=O)O)cc1", "group": "inactive"}

For `C=CCNC(=O)c1cnc2n(c1=O)CCS2` , what call appears in the results of this test?
inactive

What was the test verdict on `CCOc1ccc(NC(=O)C[n+]2ccc(N(C)C)cc2)cc1` ?
active

Per the records of this test, what outcome belongs to CC(NC(=O)c1cc2sccc2n1C)c1ccc2c(c1)OCCO2 (stereo not drawn) ?
inactive

What classification did `CNC(=S)N(CCc1c(C)[nH]c2ccc(Cl)cc12)Cc1cccnc1` end up with in this test?
active

Name the outcome recorded for `CCOc1ccccc1CNC(=O)c1cc2oc3ccccc3c2n1CC` in the assay.
active

----------
- assay_summary: Confirmation screen for delayed death inhibitors of the malarial parasite plastid, 48 hour incubation; note: nearly all actives have a fitted effect of over 65% in size; note: potency is the fitted concentration of half-maximal effect
- condition_notes: P. falciparum-infected erythrocytes, luciferase growth; series mostly up to 28.7 µM
- From the text: The goal of this screen is to discover new antimalarial compounds that act by inhibiting the development of the apicoplast in the malarial parasite Plasmodium falciparum. The biochemical processes that make this organelle essential for erythrocytic stage parasites are not well understood. […] Growth inhibition is detected by a decrease in luciferase activity. […]
In all, about 2,300 compounds went through this assay and about 1,200 (52%) were called active. Another 34% or so got no clear call; they are omitted. So high a share suggests a set chosen from earlier hits. Some of the results follow.
value_kind: Potency

Answered cases to consult:
{"cpd_smiles": "O=C(O)c1ccccc1NS(=O)(=O)c1cccc(-n2sc3ccccc3c2=O)c1", "Potency": "15.8 µM (active)"}
{"cpd_smiles": "O=C/C=C/c1c(-c2ccccc2)cc2oc3ccccc3cc1-2", "Potency": "inactive"}
{"cpd_smiles": "CC(C)C(=O)N1CCN(c2ccc(NC(=O)c3ccc([N+](=O)[O-])o3)cc2)CC1", "Potency": "8.91 µM (active)"}
{"cpd_smiles": "C=CCNC(=O)c1onc(CSc2cc(C)cc(C)c2)c1C(=O)O", "Potency": "inactive"}
{"cpd_smiles": "CN(C)c1ccc(S(=O)(=O)N2CCCCC2)cc1NC(=O)C1=NN(c2ccccc2)C(=O)CC1", "Potency": "8.91 µM (active)"}
{"cpd_smiles": "O=C(O)CCn1c(-c2ccccc2)cc2c1CCCC2=O", "Potency": "inactive"}
{"cpd_smiles": "Cc1c(/C=N/NC(=O)c2cccs2)c2ccccc2n1Cc1ccccc1Cl", "Potency": "4.47 µM (active)"}
{"cpd_smiles": "CCOC(=O)c1c(CS(=O)(=O)c2ccccc2)n(C)c2cc(Br)c(O)cc12", "Potency": "12.6 µM (active)"}
{"cpd_smiles": "Cc1ncc(CO)c(/C=N/NC(=S)Nc2ccc(F)cc2)c1O", "Potency": "12.6 µM (active)"}

Proceed to the following item.
// query Potency value for entry `CS(=O)(=O)c1ccc(-c2nnc(NC(=O)c3ccc(S(=O)(=O)N4CCCC4)cc3)o2)cc1`
14.1 µM (active)

----------
- assay_summary: Confirmation screen for delayed death inhibitors of the malarial parasite plastid, 48 hour incubation; note: nearly all actives have a fitted effect of over 65% in size
- condition_notes: P. falciparum-infected erythrocytes, luciferase growth; series mostly up to 28.7 µM
Among all 2,300 compounds or so, about 1,200 (52%) were called active. Inconclusive results (about 34%) are left out. Calls come from the whole dose curve; as a rule, active = well fitted inhibition curve with a large enough effect; inconclusive = small, poorly fitted or top-dose-only effect, or effect the other way; inactive = no such curve, though single readings can be large or run the other way. The set was probably picked from earlier hits. Some of the results follow.
Can you answer with just one of these options? active, inactive

These solved cases illustrate the format of a correct answer.
{"compound": "COc1ccc(S(=O)(=O)N2CCCCCC2)cc1C(=O)N(C)CC(=O)Nc1cc(C)ccc1C", "group": "active"}
{"compound": "O=C(CSc1nc2nn(-c3ccccc3)c(=O)c-2c2n1CCCCC2)c1ccc(O)c(O)c1", "group": "active"}
{"compound": "CCCn1c(CN2CCN(C(=O)OCC)CC2)nc2cc(NC(=O)C(C)C)ccc21", "group": "active"}
{"compound": "COc1ccc(C(c2c(C)n(C)n(-c3ccccc3)c2=O)c2c(C)n(C)n(-c3ccccc3)c2=O)cc1", "group": "active"}

Call for entry `COc1ccc(/C=C2\CC/C(=C\c3ccc(OC)c(OC)c3)C2=O)cc1OC` :
active

For C[C@@H]1CCC2[C@@H](C)[C@@H](O)O[C@@H]3O[C@@]4(C)CC[C@@H]1[C@@]23OO4 (some centres not stated) , which call appears in the assay record?
active

Please let me know the test result on file for CCN(CC)C(=O)C1CCCN(C(=O)c2cc(COc3ccc4ncccc4c3)on2)C1 (configuration not stated) .
active

Dear colleague, could you share the recorded outcome for `CSC1=NC(C)(C)C=C(/C=C/c2ccc(Cl)cc2Cl)N1` when you have a moment?
active

In this assay, the call recorded for `Cc1ccc(OCCSCc2nnc(NC(=O)Nc3cccc(Cl)c3)s2)cc1` was what?
active

Kindly provide the recorded test outcome for the following compound: `S=c1[nH]nc(-c2ccccn2)n1/N=C/c1ccc(-c2ccccc2Br)o1`
inactive

So what was the verdict on `Nc1cccc2c1C(=O)N(C(=O)/C=C/c1ccc(F)cc1)C2=O` in this test?
inactive

----------
- assay_summary: Confirmation screen for delayed death inhibitors of the malarial parasite plastid, 48 hour incubation; note: nearly all actives have a fitted effect of over 65% in size
- condition_notes: P. falciparum-infected erythrocytes, luciferase growth; series mostly up to 28.7 µM
Screen size: about 2,300 compounds; about 1,200 (52%) were called active. Inconclusive results (about 34%) are left out. Calls follow the shape of the dose curve; as a rule, active = well fitted inhibition curve with a large enough effect; inconclusive = small, poorly fitted or top-dose-only effect, or effect the other way; inactive = no such curve, though single readings can be large or run the other way. So high a share suggests a set chosen from earlier hits. This is one part of the list.
Pick from active, inactive when you respond.

{"compound": "CCOC(=O)CSc1nnc(NC(=O)c2cccc([N+](=O)[O-])c2)s1", "group": "active"}
{"compound": "COc1ccc(CCC(C)N2CCC(Oc3ccc(C(=O)N4CCCC4)cc3)CC2)cc1 (stereo not given)", "group": "active"}
{"compound": "Cc1cc(NC(=O)COC(=O)c2ccccc2S(=O)(=O)N(C)c2ccccc2)no1", "group": "active"}
{"compound": "O=C(NCc1cccnc1)c1nc(-c2ccccc2)n(-c2ccccc2)n1", "group": "inactive"}
{"compound": "O=C1CN(C(=O)c2ccc(Cl)c(S(=O)(=O)N3CCc4ccccc43)c2)c2ccccc2N1", "group": "active"}
{"compound": "CC(C)NC(=O)NC(=O)COC(=O)c1ccccc1Oc1ccccc1", "group": "inactive"}
{"compound": "COc1ccccc1-n1c(=S)[nH]c2c(sc(=S)n2-c2ccc(C)cc2C)c1=O", "group": "active"}
{"compound": "COc1ccc(NC2=C(NC(C)=O)C(=O)c3ccccc3C2=O)cc1", "group": "active"}
{"compound": "CCOC(=O)c1c(C)c(-c2ccccc2)n(CC(=O)NCCCN(CC)CC)c1C", "group": "active"}
{"compound": "O=C(c1ccc(CS(=O)c2ccccc2Cl)o1)N1CCN(c2ccccn2)CC1 (stereo not given)", "group": "active"}

In this assay, the call recorded for `CC1=CC(=O)O[C@@H]1[C@@]1(C)C[C@H]2OC(=O)C[C@H]3[C@@H](C)C(=O)C(O)=C1[C@@]23CO` was what?
inactive

What is the recorded call for this compound in the test? `O=C(Cn1c(=O)c(=O)n(Cc2ccccc2)c2ccc(Cl)cc21)Nc1cccc(F)c1`
active

State the result this test recorded for `Clc1cccc(Cl)c1C[n+]1ccc2ccccc2c1` .
active

Any idea what this test logged for CC(NC(=O)Nc1ccc(Cl)cc1)c1ccc2c(c1)OCO2 (stereo not given) ?
inactive

For this compound, state the assay outcome: `CC(=O)c1c(C)cc(C)c(CSc2nc(C)cc(=O)[nH]2)c1C`
inactive

Values were extracted from PubChem BioAssay AID504850.
